- EXPERIMENTAL PROTOCOL: Quantitative High-Throughput drug screen in 47 multiple myeloma cell lines against the NCATS MIPE library collection: ARD_JJKsccE7 cell viability assay (AID 1918929)
- DETAILS: ARD myeloma cell line viability, CellTiter-Glo, 48 h; series mostly up to 45.8 µM
Inconclusive results are not listed. Active and inactive are the calls of the source. Calls follow the shape of the dose curve; as a rule, active = well fitted cell-killing curve with a large enough effect; inconclusive = small, poorly fitted or top-dose-only effect, or effect the other way; inactive = no such curve, though single readings can be large or run the other way.
Possible outcomes: active, inactive

MOLECULE: CC1(C)OC2CC3C4CC(F)C5=CC(=O)C=CC5(C)C4C(O)CC3(C)[C@]2(C(=O)CO)O1 (some centres undefined)
ASSIGNED CATEGORY: active
--
MOLECULE: N#CC(=C1Nc2ccccc2S1)c1ccnc(OCc2ccc(CN3CCOCC3)cc2)n1
ASSIGNED CATEGORY: active
--
MOLECULE: CCCCc1ccc(NS(=O)(=O)c2ccc(C)c(C(=O)N3CCN(c4cccc(C)c4C)CC3)c2)cc1
ASSIGNED CATEGORY: inactive
--
MOLECULE: COc1cc2c(cc1OC)[C@@H]1Cc3ccc(OC)c(OC)c3CN1CC2
ASSIGNED CATEGORY: inactive
--
MOLECULE: CCCCC(C=O)NC(=O)C(CC(C)C)NC(=O)OCc1ccccc1 (centres undefined)
ASSIGNED CATEGORY: inactive
--
MOLECULE: CCCC1OC2C[C@@H]3[C@H]4CCC5=CC(=O)C=C[C@]5(C)[C@H]4C(O)C[C@]3(C)[C@]2(C(=O)CO)O1 (some centres undefined)
ASSIGNED CATEGORY: active
--
MOLECULE: CCC[C@H](Nc1nc(-c2ccc(NC(=O)NCC)c(OC)c2)ncc1C)c1cccnc1
ASSIGNED CATEGORY: active
--
MOLECULE: CN1C(=O)C(Cc2c[nH]c3ccccc23)NC1=S (centres undefined)
ASSIGNED CATEGORY: inactive
--
MOLECULE: CCc1cccc(CC)c1NC(=O)N1Cc2[nH]nc(NC(=O)c3ccc(N4CCN(C)CC4)cc3)c2C1
ASSIGNED CATEGORY: active
--
MOLECULE: CS(=O)(=O)c1ccc(C2=C(c3ccccc3)C(=O)OC2)cc1
ASSIGNED CATEGORY: inactive
--
MOLECULE: Oc1ccc(C=Cc2cc(O)cc(O)c2)cc1
ASSIGNED CATEGORY: inactive
--
MOLECULE: CC1C(=O)OC2C(O)C34C5CC(C(C)(C)C)C36C(OC(=O)C6O)OC4(C(=O)O5)C12O (centres undefined)
ASSIGNED CATEGORY: inactive
--
MOLECULE: CO[C@H]1/C=C\O[C@@]2(C)Oc3c(C)c(O)c4c(O)c(c(C=NN5CCN(C6CCCC6)CC5)c(O)c4c3C2=O)NC(=O)C(C)=CC=C[C@H](C)[C@H](O)[C@@H](C)[C@@H](O)[C@@H](C)[C@H](OC(C)=O)[C@H]1C
ASSIGNED CATEGORY: active
--
MOLECULE: O=C(CC12CC3CC(CC(C3)C1)C2)Nc1cccc2nc(NCCNCCO)ccc12
ASSIGNED CATEGORY: active
--
MOLECULE: CC(C)(F)C[C@H](N[C@@H](c1ccc(-c2ccc(S(C)(=O)=O)cc2)cc1)C(F)(F)F)C(=O)NC1(C#N)CC1
ASSIGNED CATEGORY: inactive
--
MOLECULE: O=C1CCCC(=O)C1C(=O)c1ccc(C(F)(F)F)cc1[N+](=O)[O-]
ASSIGNED CATEGORY: active
--
MOLECULE: NCc1c[nH]c(=S)n1[C@H]1CCc2c(F)cc(F)cc2C1
ASSIGNED CATEGORY: active
--
MOLECULE: C[C@@]1(C(=O)Nc2ccc(F)nc2)CCCN1c1nc(Nc2cc(C3CC3)[nH]n2)c2cccn2n1
ASSIGNED CATEGORY: active
--
MOLECULE: CNC(=O)[C@H](CC1=CN=C2C=CCC=C12)NC(=O)[C@@H](CC(=O)NO)CC(C)C
ASSIGNED CATEGORY: active
